- TARGET_OR_SYSTEM: UniProtKB Q9GZU1
- Sequence (Q9GZU1 whole entry L15A/L16A/L577A/L578A, form open): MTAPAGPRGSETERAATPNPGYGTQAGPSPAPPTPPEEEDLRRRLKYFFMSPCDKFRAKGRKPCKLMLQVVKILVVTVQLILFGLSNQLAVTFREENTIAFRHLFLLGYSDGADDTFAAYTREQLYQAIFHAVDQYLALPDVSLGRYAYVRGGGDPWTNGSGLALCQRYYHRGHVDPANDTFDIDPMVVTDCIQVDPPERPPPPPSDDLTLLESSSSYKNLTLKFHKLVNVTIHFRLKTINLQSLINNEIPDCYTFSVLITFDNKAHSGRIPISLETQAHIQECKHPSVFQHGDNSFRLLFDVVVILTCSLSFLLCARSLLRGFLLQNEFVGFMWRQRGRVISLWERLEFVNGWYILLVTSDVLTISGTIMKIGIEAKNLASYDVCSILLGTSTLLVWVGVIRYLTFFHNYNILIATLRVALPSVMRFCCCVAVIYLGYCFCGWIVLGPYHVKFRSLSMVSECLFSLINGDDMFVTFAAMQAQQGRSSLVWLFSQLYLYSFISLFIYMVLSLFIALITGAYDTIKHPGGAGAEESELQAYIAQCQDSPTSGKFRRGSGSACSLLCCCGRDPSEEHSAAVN
- PROCEDURE_TEXT: Fluorescent TRPML1 assay (Fluo4-AM calcium fluorescence in doxycycline-induced HEK-293 Trex cells)
- Type: cell-based
QUANTITY_MEASURED: EC50

Worked examples follow.
Cc1cn(-c2cc(F)cc(Cl)c2)c2ncnc(N3C[C@@H](C)N(C(=O)OC(C)(C)C)C[C@@H]3C)c12	< 100 nM
C[C@@H]1CN(c2ncnc3c2c(C(F)(F)F)cn3-c2cc(C(F)(F)F)ccn2)[C@@H](C)CN1C(=O)OC(C)(C)C	< 100 nM

// next entry
# input Identify EC50 associated with the compound C[C@H]1CN(C(=O)OC(C)(C)C)CCN1c1ncnc2c1c(N(C)C1CC1)cn2-c1cccc(Cl)c1
# output 100 to 500 nM

----------
- TARGET_OR_SYSTEM: TRPML3 (Homo sapiens, UniProt Q8TDD5)
- Construct: expressed in transfected cells
- Sequence (Q8TDD5 whole entry): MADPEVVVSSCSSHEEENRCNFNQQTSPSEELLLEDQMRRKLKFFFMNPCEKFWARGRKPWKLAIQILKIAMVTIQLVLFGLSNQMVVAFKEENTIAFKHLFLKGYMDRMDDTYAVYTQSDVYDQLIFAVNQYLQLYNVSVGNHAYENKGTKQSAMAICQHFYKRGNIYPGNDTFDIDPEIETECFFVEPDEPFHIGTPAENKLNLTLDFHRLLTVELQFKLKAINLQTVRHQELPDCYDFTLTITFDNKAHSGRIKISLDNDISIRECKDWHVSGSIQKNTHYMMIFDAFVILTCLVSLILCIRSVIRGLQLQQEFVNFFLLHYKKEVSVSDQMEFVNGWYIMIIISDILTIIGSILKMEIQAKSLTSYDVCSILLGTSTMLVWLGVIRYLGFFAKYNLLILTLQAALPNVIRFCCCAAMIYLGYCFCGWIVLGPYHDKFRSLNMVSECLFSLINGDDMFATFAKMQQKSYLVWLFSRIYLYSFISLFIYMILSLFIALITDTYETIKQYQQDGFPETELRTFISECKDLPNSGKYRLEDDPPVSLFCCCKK
- PROCEDURE_TEXT: Fluorescent TRPML3 assay (performed as for TRPML1, substituting the TRPML3 subtype)
- Format: cell-based
- Procedure: HEK-293 Trex cells were stably transfected with a construct consisting of the human coding sequence for TRPML1 cloned into the […] plasmid pCDNA5 T/O. Mutations were introduced into the TRPML1 sequence to facilitate expression on the cell surface (Silvia Vergarajauregui, Rosa Puertollano, Traffic. 2006 March; 7(3): 337-353). […] The Trypsin-EDTA is diluted with growth media, and cells are counted. […] EC50 values were calculated using a non-linear regression of Prism. […]
QUANTITY_MEASURED: EC50

Worked examples follow.
[2H]C([2H])([2H])C(OC(=O)N1C[C@@H](C)N(c2ncnc3c2c(C(F)(F)F)cn3-c2cc(C#N)ccn2)C[C@H]1C)(C([2H])([2H])[2H])C([2H])([2H])[2H]	100 to 500 nM
Cc1cn(-c2cccc(C#N)c2)c2ncnc(N3C[C@@H](C)N(C(=O)OC(C)(C)C)C[C@@H]3C)c12	< 100 nM
Cc1cn(-c2ccccc2)c2ncnc(N3CCN(C(=O)OC(C)(C)C)C[C@@H]3C)c12	< 100 nM

# input Identify EC50 associated with the compound Cc1cn(-c2cccc(Cl)c2)c2ncnc(N3C[C@@H](C)N(C(=O)OC(C)(C)C)C[C@@H]3C)c12
# output < 100 nM

----------
- TARGET_OR_SYSTEM: TRPML2 (Homo sapiens)
- Construct: expressed in transfected cells
- Sequence (Q8IZK6 whole entry): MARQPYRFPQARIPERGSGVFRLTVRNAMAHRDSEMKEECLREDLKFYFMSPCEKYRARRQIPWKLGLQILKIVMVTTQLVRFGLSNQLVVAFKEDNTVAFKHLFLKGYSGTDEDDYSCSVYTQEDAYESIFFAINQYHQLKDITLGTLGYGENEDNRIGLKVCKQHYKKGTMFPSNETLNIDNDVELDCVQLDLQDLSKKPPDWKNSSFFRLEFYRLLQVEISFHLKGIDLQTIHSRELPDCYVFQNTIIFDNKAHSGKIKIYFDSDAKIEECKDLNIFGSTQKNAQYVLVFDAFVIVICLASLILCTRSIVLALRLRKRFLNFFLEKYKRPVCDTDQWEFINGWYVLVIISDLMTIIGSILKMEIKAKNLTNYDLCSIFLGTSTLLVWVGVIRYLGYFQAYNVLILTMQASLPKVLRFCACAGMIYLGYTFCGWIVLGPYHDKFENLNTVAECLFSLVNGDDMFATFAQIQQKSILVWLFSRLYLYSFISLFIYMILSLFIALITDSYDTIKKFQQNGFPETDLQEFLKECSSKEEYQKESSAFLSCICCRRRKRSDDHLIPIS
- PROCEDURE_TEXT: Fluorescent TRPML2 assay (performed as for TRPML1, substituting the TRPML2 subtype)
- Type: cell-based
- APPLIED_CONDITIONS: fluorescent calcium assay
pEC50: −log10 of the molar value.
# pEC50 per record follows

Worked examples follow.
Cc1nccnc1-c1cn(-c2cc(F)cc(F)c2)c2ncnc(N3CCN(C(=O)OC(C)(C)C(F)(F)F)C[C@@H]3C)c12 [Compound 247]	5.70 to 6.30
CC(C)(C)OC(=O)N1CCN(c2ncnc3c2c(C2CC2)cn3-c2cc(Cl)cc(Cl)c2)CC1 [Compound 122]	< 5.70
C[C@H]1CN(C(=O)OC(C)(C)C(F)(F)F)CCN1c1ncnc2c1c(C1CC1)cn2C1CCCCC1 [Compound 325]	6.30 to 7.00
C[C@H]1CN(C(=O)OC(C)(C)C)CCN1c1ncnc2c1c(N(C)C1CC1)cn2-c1cc(C#N)ccn1 [Compound 442]	5.70 to 6.30
C[C@@H]1CN(C(=O)OC(C)(C)C)CCN1c1ncnc2c1c(C1CC1)cn2-c1cccc(C#N)c1 [Compound 199]	6.30 to 7.00

# input Would you please give the reported pEC50 of C[C@H]1CN(C(=O)OC(C)(C)C(F)(F)F)CCN1c1ncnc2c1c(C1CC1)cn2-c1cccc(OC(F)(F)F)c1 [Compound 265] with TRPML2 (Homo sapiens)?
# output 6.30 to 7.00

# input Would you please give the reported pEC50 of COc1cncc(-n2cc(-c3ccccc3F)c3c(N4C[C@@H](C)N(C(=O)OC(C)(C)C)C[C@@H]4C)ncnc32)c1 [Compound 135] with TRPML2 (Homo sapiens)?
# output 6.30 to 7.00

# input Would you please give the reported pEC50 of CC(C)(C)OC(=O)N1CCN(c2ncnc3c2c(-c2ccccc2F)cn3-c2cc(C#N)ccn2)CC1(C)C [Compound 391] with TRPML2 (Homo sapiens)?
# output 6.30 to 7.00

# input Would you please give the reported pEC50 of C[C@H]1CN(c2ncnc3c2c(C2CC2)nn3-c2cc(F)cc(F)c2)CCN1C(=O)OC(C)(C)C [Compound 240] with TRPML2 (Homo sapiens)?
# output 5.70 to 6.30

# input Would you please give the reported pEC50 of C[C@H]1CN(C(=O)OC(C)(C)C)CCN1c1ncnc2c1c(N1CCCC1)cn2-c1cccc(Cl)c1 [Compound 210] with TRPML2 (Homo sapiens)?
# output > 7.00
